Provenance of the data: ChEMBL document CHEMBL1136700

assay: Half life period was measured upon intravenous administration (5 mg/kg); format: ADME, organism-based; details: in vivo
readout label: half-life (h)
Field format: number, assumed h, no unit text.

C=C(Cl)CN1C[C@H](OCC23C[C@@H]4[C@H](C)CC[C@H]4C4(C=O)CC2C=C(C(C)C)[C@@]34C(=O)O)OC[C@H]1C(C)C : 1.6

[ask] Would you kindly share the measured half-life for C=C(Cl)CN1C[C@H](OCC23C[C@@H]4[C@H](C)CC[C@H]4C4(C=O)CC2C=C(C(C)C)[C@@]34C(=O)O)O[C@H](C)C1 ?
[reply] 0.44

[ask] If you can, please state the reported half-life value of C=C(Cl)CN1C[C@H](OCC23C[C@@H]4[C@H](C)CC[C@H]4C4(C=O)CC2C=C(C(C)C)[C@@]34C(=O)O)OC[C@H]1C .
[reply] 1.8
